- assay.comment: optical density change of DRC41 E. coli – strain DRC41, OD650, 24 h, E. coli filamentation project, primary screen (AID 1093);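 further: MC1000 strain lacking acrAB efflux and sulA so SOS filamentation is blocked; test concentration not given here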
- measurement.conditions: E. coli DRC41 growth, higher = more signal, called active from +8 up or from −8 down
value.type: z-score
Response field accepts a number only; no unit should be typed.

[
  {
    "smiles.structure": "CC(C)N1C(=O)C[C@@](C(=O)NCCN2CCOCC2)(c2ccc([N+](=O)[O-])cc2)[C@H]1c1ccc(CO)cc1",
    "z-score": 0.214
  },
  {
    "smiles.structure": "[N-]=[N+]=NCc1ccccc1[C@@H]1OC(c2ccc(OCCCO)cc2)=N[C@]1(Cc1ccccc1N=[N+]=[N-])C(=O)O",
    "z-score": -0.0956
  },
  {
    "smiles.structure": "C=CCOC(=O)[C@H]1[C@@H]2C(=O)O[C@@H](c3ccccc3)[C@@H](c3ccccc3)N2[C@@H](c2ccc(OCCOC(=O)[C@@H]3C[C@@H]4C(=O)N[C@@H](CCCC[N+](C)(C)C)C(=O)N4[C@@H]3c3ccc(O)cc3)cc2)[C@]12C(=O)Nc1ccc(I)cc12",
    "z-score": -1.94
  }
]

Req: What does the record list as z-score for COC(=O)[C@]1(CCC(=O)OC(C)(C)C)N=C(c2ccc(OCCCO)cc2)O[C@@H]1c1ccccc1N=[N+]=[N-] ?
Resp: 0.217

Req: Entry CN(C)CCCC[C@@H]1NC(=O)[C@H]2C[C@@H](C(=O)O)[C@@H](c3ccc(O)cc3)N2C1=O : reported z-score = ?
Resp: 2.11

Req: Which z-score value is on record for COc1ccc([Si](C)(C)[C@H]2[C@H](CCO)O[C@@]3(C(=O)N(Cc4cccc(N(C=O)c5ccccc5)c4)c4ccccc43)[C@@H]2C)cc1 ?
Resp: 2.01

* * *

Reported composite z-score is given for each of the following compounds.
- assay.comment: probe aInhba binding on compound microarray – biochemical, small-molecule microarray, 635/667 nm fluorescence, primary screen (AID 1148);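 further: score merges 667nm spot fluorescence with signal-to-noise for antibody binding to printed compounds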
- measurement.conditions: higher = more signal
Provide a numeric answer; units are not to be included.

Here's what some known entries look like.
[
  {
    "compound": "[N-]=[N+]=NCc1ccccc1[C@@H]1OC(c2ccc(OCCCO)cc2)=N[C@]1(Cc1ccccc1N=[N+]=[N-])C(=O)NCC(O)CO (some centres not stated)",
    "value.type": "composite z-score",
    "measured.number": 0.791
  },
  {
    "compound": "C=CCN1C(=O)[C@]2(O[C@H](CCn3cc([C@H](O)c4ccccc4)nn3)[C@@H]([Si](C)(C)c3ccc(OC)cc3)[C@@H]2C)c2cc(NC(=O)c3ccc(OC)cc3)ccc21",
    "value.type": "composite z-score",
    "measured.number": 0.117
  },
  {
    "compound": "CCOC(=O)C[C@H]1[C@H](OC(=O)c2ccccc2-c2ccccc2)[C@@H](NC(=O)C2CCCCC2)c2cc(OCCCO)ccc2N1C(=O)c1ccc2ccccc2n1",
    "value.type": "composite z-score",
    "measured.number": 0.222
  },
  {
    "compound": "C=CCOC(=O)[C@@H]1[C@H]2C(=O)O[C@H](c3ccccc3)[C@H](c3ccccc3)N2[C@H](c2ccc(OCCOC(=O)[C@H]3C[C@H]4C(=O)N5CCC[C@H]5C(=O)N4[C@H]3c3cccc(OCCO)c3)cc2)[C@@]12C(=O)Nc1ccc(I)cc12",
    "value.type": "composite z-score",
    "measured.number": -0.0552
  }
]

Req: Request the reported composite z-score associated with CCCCC(O)C1C=CC2C(=O)N(c3ccccc3)C(=O)C2N1Nc1ccccc1 (configuration not stated)
Resp: 0.0278

Req: Please look up its composite z-score: Cc1ccc(C(C)CC(O)C2C=CC3C(=O)N(C)C(=O)C3N2Nc2ccccc2)o1 (configuration not stated)
Resp: 0.0588

Req: // returns reported composite z-score for input COCCCNC(=O)[C@@]1(Sc2ccc(C)cc2)CC(=O)N(Cc2ccccc2C(F)(F)F)[C@@H]1c1ccc(CO)cc1I
Resp: -0.111

* * *

- assay.comment: FRG1 expression reporter modulators in myotubes – cell-based, C2C12 myotubes, firefly/Renilla luciferase, luminescence, FRG1 inhibition for FSHD, primary screen (AID 1084)
- measurement.conditions: FRG1 promoter luciferase, higher = more signal, called active from +8 up or from −8 down
value.type: z-score
Enter the number alone.

[
  {
    "molecule": "COC(=O)C1=CC(CCCO)=CC(c2cccs2)N(Cc2cc3c(cc2Br)OCO3)C=C1C(=O)OC (configuration not stated)",
    "z-score": -2.18
  }
]

Req: Any idea what z-score was measured for CC(C)OC(=O)CC(=O)CC(O)c1cccc([N+](=O)[O-])c1 (configuration not stated) ?
Resp: -1

Req: Data request, read-out z-score, for C=C(CCCC)/C(=C/C[C@@H](OC(C)=O)c1ccc(CO)o1)c1cnc2ccccc2c1
Resp: -0.16

Req: // lookup z-score for [N-]=[N+]=NCc1ccccc1[C@@H]1OC(c2ccc(OCCCO)cc2)=N[C@]1(Cc1ccccc1N=[N+]=[N-])C(=O)O
Resp: 1.22

Req: Request the reported z-score associated with COC(=O)[C@]1(Cc2ccccc2)N=C(c2ccc(OCCCO)cc2)O[C@@H]1c1ccccc1CN=[N+]=[N-]
Resp: 1.48

Req: Fill blank: measured z-score of the molecule O=C1NC(=O)C2C1C=CC(C(O)c1ccc(B(O)O)cc1)N2Nc1ccc(Cl)cc1Cl (configuration not stated) is ____.
Resp: 0.402

Req: Param item = CC(C)C[C@@H]1NC(=O)[C@@]23C(=O)N[C@@H](Cc4ccccc4)C2[C@H](C)[C@@]2(C)O[C@H]2C3/C=C/C/C=C\CNC(=O)CNC1=O (some centres not stated) ; retrieve measured z-score.
Resp: -0.866

Req: What does the data say about its z-score? Entry: C=CCOC(=O)[C@H]1[C@@H]2C(=O)O[C@@H](c3ccccc3)[C@@H](c3ccccc3)N2[C@@H](c2ccc(OCCOC(=O)[C@@H]3C[C@@H]4C(=O)N[C@@H](CCCCNC(C)=O)C(=O)N4[C@@H]3c3cccc(OCCO)c3)cc2)[C@]12C(=O)Nc1ccccc12
Resp: 1.26

Req: Which measured z-score value corresponds to COCCOC(=O)N1C(=O)[C@@]2(c3ccccc31)[C@H](c1ccc(O)cc1)N1[C@H](c3ccccc3)[C@H](c3ccccc3)OC(=O)[C@H]1[C@@H]2C(=O)N1CCCCCCC1 ?
Resp: -3.25

Req: Would you kindly share the measured z-score for CCCNC(=O)[C@@]1(Sc2ccc(C)cc2)CC(=O)N(Cc2ccccc2Cl)[C@@H]1c1ccc(CO)cc1I ?
Resp: -1.6

Req: Requested field: z-score. Item: C=CCC(OC(C)=O)[C@@H]1[C@@H](N(Cc2ccc(-c3cccc(C(F)(F)F)c3)o2)C(=O)c2ccc(-c3ccccc3)cc2)c2cc(OCCCO)ccc2N1C(=O)c1ccc2ccccc2c1 (some centres not stated)
Resp: -0.274

* * *

- measured.target: Carbonic anhydrase 2 (Homo sapiens)
- assay.comment: compounds binding carbonic anhydrase 2 – biochemical, small-molecule microarray, Alexa647-labelled CAII, profiling panel (AID 1122)
- measurement.conditions: CAII-A647 binding fluorescence, higher = more signal
Everything with composite z-score lower than 0.6 is false (0); everything else, including exactly 0.6, is true (1).

[
  {
    "compound": "Cc1ccc(S[C@]2(C(=O)NCCCN(C)C)CC(=O)N(Cc3ccccc3C(F)(F)F)[C@@H]2c2ccc(CO)cc2I)cc1",
    "classification": "true (1)"
  }
]

Req: In plain terms: is recorded composite z-score at least 0.6 for CC(C)C[C@@H]1NC(=O)[C@@H]2C[C@H](C(=O)NCCCCCCNC(=O)CS)[C@H](c3cccc(OCCO)c3)N2C1=O ?
Resp: false (0)

Req: Test whether the compound O=C(NCc1ccccc1)[C@@H]1c2ccccc2C(=O)N(Cc2ccc(OC(F)(F)F)cc2)[C@H]1c1ccc(CO)cc1 records composite z-score of 0.6 or higher.
Resp: true (1)

Req: Identify whether the reported composite z-score of the following compound is 0.6 or greater: CC(C)C[C@H]1NC(=O)C([C@@H](C)OCc2ccccc2)NC(=O)[C@@]23C(=O)N[C@@H](Cc4ccccc4)C2[C@H](C)[C@@]2(C)O[C@H]2C3/C=C/C/C=C\CNC1=O (some centres not stated)
Resp: false (0)

Req: Does CN(C)CCCNC(=O)[C@@]1(Cc2ccccc2I)c2ccccc2C(=O)N(C2CCCCC2)[C@H]1c1ccc(CO)cc1 have a reported composite z-score of at least 0.6?
Resp: false (0)

Req: Identify whether the reported composite z-score of the following compound is 0.6 or greater: COCCOC(=O)N1C(=O)[C@@]2(c3cc(C#Cc4ccc(OC)cc4)ccc31)[C@H](c1ccc(OCCO)cc1)N1[C@H](c3ccccc3)[C@H](c3ccccc3)OC(=O)[C@H]1[C@@H]2C(=O)NC[C@H](O)c1ccccc1
Resp: false (0)

Req: Say whether CCOC(=O)C[C@H]1[C@H](OC(=O)c2ccccc2-c2ccccc2)[C@@H](NC(=O)c2ccc3ccccc3c2)c2cc(OCCCO)ccc2N1C(=O)Cc1ccc(OC)cc1 shows composite z-score of 0.6 or more.
Resp: false (0)

Req: Has COC(=O)[C@@]1(Cc2ccccc2)[C@H]2c3cc(C(=O)N(C)C)n(CCSC(=N)N)c3C[C@H]2CN1C(=O)c1ccccc1 a recorded composite z-score greater than or equal to 0.6?
Resp: true (1)

Req: Would you say COCCOC(=O)N1C(=O)[C@@]2(c3cc(C#CCC(C(=O)OC)C(=O)OC)ccc31)[C@H](C(=O)Nc1nc3ccccc3s1)[C@H]1C(=O)O[C@H](c3ccccc3)[C@H](c3ccccc3)N1[C@@H]2c1ccc(O)cc1 shows composite z-score at minimum 0.6?
Resp: false (0)

Req: Could you please find out whether CCCCC(O)C1C=CC2C(=O)N(c3ccccc3)C(=O)C2N1Nc1ccccc1 (configuration not stated) has composite z-score that meets 0.6 or exceeds it?
Resp: false (0)

Req: Say whether CN1C(=O)C2C(C1=O)C1C=C(CCCO)C2C(C2CC2)N1Cc1cccc(OC(F)(F)F)c1 (configuration not stated) shows composite z-score of 0.6 or more.
Resp: true (1)

Where do the numbers come from? From PubChem BioAssay.
